system: CAKI-1 renal; assay: NCI tumour cell line growth inhibition, 48 h
Reported TGI is given for each of the following molecules.

Structure Notation: CCCCCCCCCC[N+](C)(C)C
TGI: 15.3 µM
//
Structure Notation: COc1ccc(-c2c3c(nc4[nH]c(=S)[nH]c(=S)c24)CCCC3)cc1OC
TGI: > 100 µM
//
Structure Notation: OCCCCCNc1ccnc2cc(Cl)ccc12
TGI: > 100 µM
//
Structure Notation: COc1cc(/C=C2\Cc3ccccc3C2=O)cc(OC)c1OC
TGI: > 100 µM

* * *

tested on: NCI-H23 lung; experiment: NCI tumour cell line growth inhibition, 48 h; in the data active = GI50 below about 0.43 µM; inactive = the rest
Possible outcomes: true (1) = active, false (0) = inactive

Compound: COC1C(O)CC(OC2CC(OC3CC(O[C@@H]4C(=O)c5c(cc6cc(OC7CC(OC8CC(O)C(O)C(C)O8)C(O)C(C)O7)c(C)c(O)c6c5O)CC4[C@H](OC)[C@@H](O)C(C)=O)OC(C)C3O)OC(C)C2O)OC1C (some centres not stated)
Classification: true (1)
//
Compound: CCN(CC)CCOc1ccc(Cc2ccccc2)cc1
Classification: false (0)
//
Compound: CCCCCCCCCCCCC(NC(C)=O)(C(=O)OCC)C(=O)OCC
Classification: false (0)
//
Compound: NC(Cc1c[nH]c2cc(F)ccc12)C(=O)O (configuration not stated)
Classification: false (0)
//
Compound: CCCCCCCCCC[N+](C)(C)C
Classification: false (0)
//
Compound: CC(=Nc1ccccc1)C1=C(O)C(Cc2ccc(F)cc2)NC1=O (configuration not stated)
Classification: false (0)
//
Compound: CCCc1n(Cc2ccc3ccccc3n2)cc[n+]1Cc1ccc2ccccc2c1
Classification: false (0)
//
Compound: Cc1cc(C)c(O)c(CNCCCNCc2cc(C)cc(C)c2O)c1
Classification: false (0)
//
Compound: COc1c(N2CCN(CN3C(=O)C(=O)c4ccccc43)C(C)C2)c(F)cc2c(=O)c(C(=O)O)cn(C3CC3)c12 (configuration not stated)
Classification: false (0)
//
Compound: CN1CCN(Cc2ccc(NC(=O)c3cccc(C#Cc4c(N)ncc5ccc(F)cc45)c3)cc2C(F)(F)F)CC1
Classification: false (0)
//
Compound: C=C(C)[C@@H]1CC[C@]2(CN)CC[C@]3(C)[C@H](CC[C@@H]4[C@@]5(C)CCC(N)[C@@](C)(CO)[C@@H]5CC[C@]43C)[C@@H]12 (some centres not stated)
Classification: false (0)
//
Compound: Cc1ccc(-n2c3c(c4c(CN)c(O)ccc42)CCc2ccccc2C3=O)cc1
Classification: false (0)

* * *

tested on: HCC-2998 colon; assay: NCI tumour cell line growth inhibition, 48 h
Reported TGI is given for each of the following compounds.
Property Label: TGI

Compound: NC(Cc1ccc(O)cn1)C(=O)O (stereo not given)
Reported: > 100 µM

Compound: COC(=O)[C@H](Cc1cn(C)cn1)NC(=O)[C@@H](NC(=O)Nc1cc(C(F)(F)F)cc(C(F)(F)F)c1)C(C)(C)C
Reported: > 10 µM

Compound: CCN(CC)CCOc1ccc(Cc2ccccc2)cc1
Reported: > 100 µM

Compound: CCOC(=O)c1csc(-c2nc(CCNC(=O)c3ccccc3)sc2Cl)n1
Reported: > 100 µM

Compound: Cc1c(C#N)c(N)n(C2OC(CO)C(O)C(O)C2O)c(=S)c1C#N (stereo not given)
Reported: > 100 µM

Compound: CN(C)C1C(=O)C(C(N)=O)=C(O)C2(O)C(=O)C3=C(O)c4c(O)cccc4C(C)(O)C3CC12 (stereo not given)
Reported: > 100 µM

Compound: COC(=O)C1SC[C@H]2C(=O)N(c3ccccc3)C(=O)N12 (stereo not given in full)
Reported: > 100 µM

Compound: COc1ccc(NC(=O)CC(=O)N2N=C(C)C(N=Nc3ccc(C(=O)O)cc3)C2=O)cc1 (stereo not given)
Reported: > 100 µM

Compound: COC(=O)/C=C/c1cnc2c(c1)oc(=O)n2C
Reported: > 100 µM

Compound: CCNC1=C(NC(=O)CCl)C(=O)c2ccccc2C1=O
Reported: > 10 µM

* * *

Reported TGI is given for each of the following compounds.
tested on: NCI-H23 lung; test: NCI tumour cell line growth inhibition, 48 h

Compound: C=COC(=O)N1C2CCCC(Cl)(C(C)=O)C1CC2 (stereo unspecified)
TGI: > 100 µM

Compound: NS(=O)(=O)c1nnc(NC(=O)/C=C/C(=O)O)s1
TGI: > 100 µM

Compound: CCC(C)(C)NS(=O)(=O)c1ccccc1
TGI: > 100 µM

Compound: COC(=O)[C@]1(Cc2ccc3ccccc3c2)CCCCCCN1C(=O)c1ccccc1
TGI: > 45.9 µM

Compound: CCOC1=NC(C(F)(F)F)(C(F)(F)F)N=C(N2CCCCC2)O1
TGI: > 100 µM

Compound: C=CCN(c1cc(OC)c2c(c1[N+](=O)[O-])C(C)(SC)C(=O)N2)S(C)(=O)=O (stereo unspecified)
TGI: > 100 µM

* * *

test system: MDA-MB-231 breast; assay: NCI tumour cell line growth inhibition, 48 h
Reported TGI is given for each of the following compounds.

Structure Notation: C(#C[C@@]12CCC[C@@H]1N(Cc1ccccc1)CO2)c1ccc2c(c1)OCO2
TGI: > 100 µM
//
Structure Notation: COc1cc2c(cc1OC)-c1ncc3cc(OC)c(OC)cc3c1C2
TGI: > 50 µM
//
Structure Notation: CCNC1=C(NC(=O)CCl)C(=O)c2ccccc2C1=O
TGI: 40.9 µM

* * *

tested on: MCF7 breast; assay: NCI tumour cell line growth inhibition, 48 h

Compound: CN1CCN(c2ccc(-c3cccc(CN4CCOCC4)c3)cc2NC(=O)c2c[nH]c(=O)cc2C(F)(F)F)CC1
TGI: > 100 µM
--
Compound: Nc1ncnc2c1cnn2COCC(O)CO (stereo not given)
TGI: > 100 µM
--
Compound: O=C1CSC(c2cccc(Oc3ccccc3)c2)N1c1cccc(Cl)c1Cl (stereo not given)
TGI: 32.8 µM
--
Compound: COc1cc(C(=O)N(C(=S)OC23CC4CC(CC(C4)C2)C3)c2ccccc2)cc(OC)c1OC
TGI: > 100 µM
--
Compound: O=C(c1cccc2cc(O)ccc12)c1cn(CCN2CCOCC2)c2ccccc12
TGI: 66.8 µM
--
Compound: c1ccc(N2N=C3N(c4ccccc4)C2N3c2ccccc2)cc1
TGI: > 100 µM
--
Compound: COc1c2occc2cc2ccc(=O)oc12
TGI: > 100 µM
--
Compound: CCCCCC(=C/c1ccccc1)/C=N/N=C(N)N
TGI: 2.74 µM
--
Compound: CCCCSC1=N/C(=C\c2ccc(N(C)C)cc2)C(Cl)=N1
TGI: > 100 µM
--
Compound: C/C(=N\Nc1nc2ccccc2o1)c1cc2ccccc2cn1
TGI: > 33.7 µM
--
Compound: CNC(=S)N(C1CCCCC1)C1CCCCC1
TGI: > 100 µM
--
Compound: C#CCN(Cc1nc2cc(C(F)(F)F)ccc2nc1-c1ccccc1)c1ccc(F)cc1
TGI: > 100 µM
--
Compound: C=CCOC1OC(CS(=O)(=O)O)C(OC(C)=O)C(OC(C)=O)C1OC(C)=O (stereo not given)
TGI: > 100 µM
--
Compound: CCN(CC)c1ccc(/C=N/NC(=O)c2ccccc2Nc2ccnc(C(F)(F)F)c2)c(O)c1
TGI: > 100 µM
--
Compound: CCCCCCC/C=C1\CCC(CN(C)C)C1=O (stereo not given)
TGI: 16.4 µM
--
Compound: Cc1ccc2c(=O)c(C(=O)NNC(=S)NC3CCCCC3)c[nH]c2n1
TGI: > 100 µM
--
Compound: CN(/N=C/c1ccccc1C(=O)O)C1=NCCCCN1
TGI: > 100 µM
--
Compound: ClCCc1ccccc1CC1=NCCc2ccccc21
TGI: > 100 µM
--
Compound: C=CCN(c1cc(OC)c2c(c1[N+](=O)[O-])C(C)(SC)C(=O)N2)S(C)(=O)=O (stereo not given)
TGI: > 100 µM
--
Compound: COc1ccc(NC(=O)CC(=O)N2N=C(C)C(N=Nc3ccc(C(=O)O)cc3)C2=O)cc1 (stereo not given)
TGI: > 100 µM

* * *

system: PC-3 prostate; test: NCI tumour cell line growth inhibition, 48 h
Property Label: TGI

Molecule: CC1OC(OC2C[C@](O)(C(=O)CBr)Cc3c(O)c4c(c(O)c32)C(=O)c2ccccc2C4=O)C(F)C(O)C1O (some centres undefined)
Reported: > 68.2 µM
--
Molecule: COc1ccc2c(c1)OC1c3ccccc3OCC21 (centres undefined)
Reported: > 100 µM
--
Molecule: COC(=O)[C@H](Cc1cn(C)cn1)NC(=O)[C@@H](NC(=O)Nc1cc(C(F)(F)F)cc(C(F)(F)F)c1)C(C)(C)C
Reported: > 10 µM
--
Molecule: COc1cc(OC2OC(CO)C(O)C(O)C2O)c2c(c1)O[C@@H]1[C@H](O)Oc3cc(OC)c(OC)cc3[C@]1(O)C2=O (some centres undefined)
Reported: > 25 µM
--
Molecule: COc1ccc2c(c1)C(=O)[C@@](Nc1ccc(C=O)cc1)(OC)[C@@](OC)(c1ccc([N+](=O)[O-])cc1)O2
Reported: > 10 µM
--
Molecule: CNC(=O)OCC1=C(COC(=O)NC)C(C)N(c2ccccc2)C1 (centres undefined)
Reported: > 100 µM
--
Molecule: CC1(C)CC[C@]2(C(=O)O)CC[C@]3(C)C(=CC[C@@H]4[C@@]5(C)CC[C@H](OC6OC(CO)C(O)C(O)C6O)C(C)(C)[C@@H]5CC[C@]43C)[C@@H]2C1 (some centres undefined)
Reported: 2.96 µM
--
Molecule: O=C1c2cc([N+](=O)[O-])sc2C(=O)c2cc([N+](=O)[O-])sc21
Reported: 15.9 µM
--
Molecule: COc1cc(C2SCC(=O)N2NC(=O)c2ccc(NC(C)=O)cc2OC)ccc1O (centres undefined)
Reported: > 100 µM
--
Molecule: C[C@@]1(O)CCC[C@H]1n1c(=O)c(C(F)F)cc2cnc(NC3CCN(S(C)(=O)=O)CC3)nc21
Reported: > 100 µM
--
Molecule: CCOC1=NC(C(F)(F)F)(C(F)(F)F)N=C(N2CCCCC2)O1
Reported: > 100 µM
--
Molecule: O=P(O)(O)CC1OC(CO)C(O)C1O (centres undefined)
Reported: > 100 µM
--
Molecule: COC(=O)C1(Cc2ccc(C)cc2)Cc2c(C)cccc2C1=O (centres undefined)
Reported: 42 µM
--
Molecule: NC(Cc1ccc(O)cn1)C(=O)O (centres undefined)
Reported: > 100 µM
